assay method text: chemical genetic growth profiling, strain panel (AID 1159580);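 note: tested at 20 µM; growth read once vehicle control cultures reached saturation at 30 °C; 1 = growth at the plate median or of vehicle wells; lower values mean less growth of the strain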
experimental setup: S. cerevisiae deletion strains, growth OD, locus YJL166W, strain qcr8
The whole screen tested about 5,500 compounds, of which about 2,000 (36%) were called active. Not shown: some 18% with an inconclusive outcome. Cut-off read from the data, not from the text of the source: active = normalized growth mostly below about 0.91 (no sharp cut-off); inconclusive = no clear call, values can overlap the other calls; inactive = mostly above about 0.92. This is one part of the list.
Possible outcomes: True for active, False for inactive

# compound, label value
rows = [
    ("COc1ccc(CC(=O)c2ccc(O)cc2O)cc1", "False"),
    ("O=C(c1ccccc1)c1ccc2n1CCC2C(=O)O (stereo not drawn)", "False"),
    ("CC(=O)OC[C@@]1(O)C[C@@]23CCC4c5ccoc5CC[C@]4(C)C2CC[C@@H]1C3 (stereo partly drawn)", "False"),
    ("Oc1cccc2cccnc12", "True"),
    ("C[C@H]1C(=O)CCC2[C@]3(C)CC[C@@]4(C)C5CC(C)(C)CC[C@]5(C)CC[C@]4(C)C3CC[C@@]21C (stereo partly drawn)", "False"),
    ("CC(NC(C)(C)C)C(=O)c1cccc(Cl)c1 (stereo not drawn)", "False"),
    ("O=C(O)CC[N+](=O)[O-]", "False"),
    ("COc1cc(O)ccc1C(C)=O", "False"),
    ("CN1CCC[C@H]1c1cccnc1", "False"),
    ("O=c1c(O)c(-c2ccc(O)cc2)oc2ccccc12", "True"),
    ("CC(=O)Nc1c(I)cc(I)c(C(=O)O)c1I", "False"),
    ("O=c1c(O)c(-c2ccccc2)oc2ccccc12", "True"),
    ("O=c1c(O)c(-c2ccccc2)oc2cc(O)ccc12", "True"),
]

---

assay method text: chemical genetic growth profiling, strain panel (AID 1159580);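 note: tested at 20 µM; growth read once vehicle control cultures reached saturation at 30 °C; 1 = growth at the plate median or of vehicle wells; lower values mean less growth of the strain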
experimental setup: S. cerevisiae deletion strains, growth OD, locus YER110C, stronger effect = lower value
The whole screen tested about 5,500 compounds, of which about 2,000 (36%) were called active. Inconclusive results (about 18%) are left out. This is one part of the list.
Measured normalized growth, listed per entry for reference.
experimental endpoint: normalized growth

# structure, experimental endpoint, observed result
records = [
    ("COc1cc([C@@H]2c3cc4c(cc3[C@H](O)[C@H]3COC(=O)[C@H]23)OCO4)cc(OC)c1OC", "normalized growth", 1.01),
    ("COc1ccc(-c2c(O)c3c(OC)c4c(cc3oc2=O)OC(C)(C)C=C4)cc1", "normalized growth", 0.949),
    ("COc1ccc(CC(=O)c2ccc(O)cc2O)cc1", "normalized growth", 0.975),
    ("O=C(N[C@@H](CO)[C@H](O)c1ccc([N+](=O)[O-])cc1)C(Cl)Cl", "normalized growth", 1.01),
    ("CN(C)CCC[C@@]1(c2ccc(F)cc2)OCc2cc(C#N)ccc21", "normalized growth", 1.03),
    ("CCCN(CCC)c1c([N+](=O)[O-])cc(C(F)(F)F)cc1[N+](=O)[O-]", "normalized growth", 1.01),
    ("COc1cc(O)ccc1C(C)=O", "normalized growth", 0.979),
    ("CCCCN(CC)c1c([N+](=O)[O-])cc(C(F)(F)F)cc1[N+](=O)[O-]", "normalized growth", 1.02),
    ("COc1ccc([C@@H](C)C(=O)c2ccc(O)cc2O)cc1", "normalized growth", 0.969),
    ("COc1cc(OC)c2c(OC)c(-c3ccc4c(c3)OCO4)c(=O)oc2c1", "normalized growth", 0.972),
    ("O=C(CCc1ccc(O)cc1)c1c(O)cc(O)cc1O", "normalized growth", 1.01),
]

---

assay method text: chemical genetic growth profiling, strain panel (AID 1159580);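 note: tested at 20 µM; growth read once vehicle control cultures reached saturation at 30 °C; 1 = growth at the plate median or of vehicle wells; lower values mean less growth of the strain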
experimental setup: S. cerevisiae deletion strains, growth OD, locus YJL187C, strain SWE1
Among all 5,500 compounds or so, about 2,000 (36%) were called active. Another 18% or so got no clear call; they are omitted. Cut-off read from the data, not from the text of the source: active = normalized growth mostly below about 0.91 (no sharp cut-off); inconclusive = no clear call, values can overlap the other calls; inactive = mostly above about 0.92. The list shows a part of the results.
Possible outcomes: active, inactive

# molecule, label value
data = [
    ("COc1ccc(Oc2ccc(C(F)(F)F)cc2[N+](=O)[O-])cc1", "inactive"),
    ("COc1cc(Cc2cnc(N)nc2N)cc(OC)c1OC", "inactive"),
    ("CCC1(C2=NCCN2)Cc2ccccc2O1 (stereo unspecified)", "inactive"),
    ("COc1ccc(CC(=O)c2ccc(O)cc2O)cc1", "inactive"),
    ("O=[N+]([O-])c1cc(C(F)(F)F)cc([N+](=O)[O-])c1Oc1ccc(Cl)c(Cl)c1", "active"),
    ("COc1ccc(-c2c(O)c3c(OC)c4c(cc3oc2=O)OC(C)(C)C=C4)cc1", "inactive"),
    ("COc1cc(O)ccc1C(C)=O", "inactive"),
    ("COc1ccc(/C=C2/C(=O)N(c3cccc(Cl)c3)N=C2C)cc1", "active"),
    ("O=C1c2ccccc2C(=O)N1CNc1cccc(Cl)c1", "inactive"),
    ("O=C1NCCN=C(c2ccccc2)c2ccccc21", "inactive"),
    ("CCCCN(CC)c1c([N+](=O)[O-])cc(C(F)(F)F)cc1[N+](=O)[O-]", "inactive"),
    ("Oc1cccc2cccnc12", "active"),
    ("FC(F)(F)c1cc(-c2ccco2)nc2cc(-c3ccco3)nn12", "inactive"),
    ("C=CC1CN2CCC1CC2C(OC(C)=O)c1ccnc2ccc(OC)cc12 (stereo unspecified)", "inactive"),
    ("COc1ccccc1N1CC(C)(C)C(=O)N(C(=O)c2c(F)cccc2Cl)C1=S", "inactive"),
    ("Cc1cc2nc3c(=O)[nH]c(=O)nc-3n(CC(O)C(O)C(O)CO)c2cc1C (stereo unspecified)", "inactive"),
    ("CC(=O)NC1C(O)OC(COS(=O)(=O)O)C(OC2OC(C(=O)O)C(OC3OC(CO)C(OC4OC(C(=O)O)C(O)C(O)C4OS(=O)(=O)O)C(OS(=O)(=O)O)C3NS(=O)(=O)O)C(O)C2OS(=O)(=O)O)C1O (stereo unspecified)", "inactive"),
    ("CC(=O)OCC1=C(C(=O)O)N2C(=O)[C@@H](NC(=O)CSc3ccncc3)[C@H]2SC1", "inactive"),
    ("C=CC[C@@H]1/C=C(\\C)C[C@H](C)C[C@H](OC)[C@H]2O[C@@](O)(C(=O)C(=O)N3CCCC[C@H]3C(=O)O[C@H](/C(C)=C/[C@@H]3CC[C@@H](O)[C@H](OC)C3)[C@H](C)[C@@H](O)CC1=O)[C@H](C)C[C@@H]2OC", "inactive"),
    ("CCCC(=O)Nc1ccc(OCC(O)CNC(C)C)c(C(C)=O)c1 (stereo unspecified)", "inactive"),
    ("CC(C)(C)S(=O)(=O)c1cnc(N)nc1N", "inactive"),
]

---

The entries below are paired with their reported normalized growth.
assay method text: chemical genetic growth profiling, strain panel (AID 1159580);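 note: tested at 20 µM; growth read once vehicle control cultures reached saturation at 30 °C; 1 = growth at the plate median or of vehicle wells; lower values mean less growth of the strain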
experimental setup: S. cerevisiae deletion strains, growth OD, locus YOR080W, strain dia2, stronger effect = lower value
Among all 5,500 compounds or so, about 2,000 (36%) were called active. Roughly 18% stayed inconclusive and do not appear here. The list shows a part of the results.

# compound, normalized growth
records = [
    ("CCC[C@@H]1C[C@@H](C(=O)N[C@H]([C@H]2O[C@H](SC)[C@H](O)[C@@H](O)[C@H]2O)[C@H](C)O)N(C)C1", 0.971),
    ("Cn1cnc2c1c(=O)[nH]c(=O)n2C", 0.972),
    ("CC(=O)Nc1c(I)cc(I)c(C(=O)O)c1I", 0.975),
    ("O=C(O)C1=C(CSc2nnnn2CS(=O)(=O)O)CS[C@@H]2C(NC(=O)[C@H](O)c3ccccc3)C(=O)N12 (stereo partly specified)", 0.981),
    ("O=c1c(O)c(-c2ccccc2)oc2cccc(O)c12", 0.925),
    ("CC(NC(C)(C)C)C(=O)c1cccc(Cl)c1 (stereo unspecified)", 0.996),
    ("CN1CCCCC1c1ccc(-c2cccnc2)nc1 (stereo unspecified)", 0.966),
    ("COc1ccc(NS(=O)(=O)c2ccc(N)cc2)nn1", 1),
    ("CC(C)C1CCC(C(=O)N[C@@H](Cc2ccccc2)C(=O)O)CC1 (stereo partly specified)", 0.977),
    ("Cc1cc2nc3c(=O)[nH]c(=O)nc-3n(CC(O)C(O)C(O)CO)c2cc1C (stereo unspecified)", 0.989),
    ("CNC(=O)Oc1ccccc1OC(C)C", 0.963),
    ("O=C(O)c1cc(=O)c2ccccc2[nH]1", 0.974),
    ("O=C(N[C@@H](CO)[C@H](O)c1ccc([N+](=O)[O-])cc1)C(Cl)Cl", 1.02),
    ("Oc1cccc2cccnc12", 0.0646),
    ("O=C(O)CC[N+](=O)[O-]", 1),
    ("CC1(C)CC23C(=O)CCC(O)C2(C)CCC13 (stereo unspecified)", 0.981),
    ("CC(=O)c1ccc[nH]1", 1),
    ("CCCC(=O)Nc1ccc(OCC(O)CNC(C)C)c(C(C)=O)c1 (stereo unspecified)", 1.02),
    ("Cn1c(=O)[nH]c2nc[nH]c2c1=O", 1.01),
    ("Cn1c(=O)c2c(ncn2C)n(C)c1=O", 0.956),
    ("CC(=CC1CCC(C)C2C1=C(C)CC2O)C(=O)O (stereo unspecified)", 1.02),
]
